system: E. coli TESEC Mtb DapB; test: growth (OD600 after 10 h); higher = more growth (less inhibition); conditions: arabinose induction (level): Low; compound 0.1 mM; raw OD600 reference: median of DMSO wells 0.227, cell-free background 0.041
Structures can show the parent of a compound that is named as a salt.
outcome-measure: growth
Write no unit; give the number alone.

compound | growth
C[C@@H]1C[C@H]2[C@@H]3C[C@H](F)C4=CC(=O)C=C[C@]4(C)[C@@]3(Cl)[C@@H](O)C[C@]2(C)[C@H]1C(=O)COC(=O)C(C)(C)C [Clocortolone pivalate] | 0.254
O=C(O[C@@H]1C[C@@H]2C[C@H]3C[C@H](C1)N2CC3=O)c1c[nH]c2ccccc12 [Dolasetron mesilate] | 0.217
CCN(CC)CCCC(C)Nc1ccnc2cc(Cl)ccc12 (stereo not drawn) [Chloroquine diphosphate] | 0.226
CN1CCCN=C1/C=C/c1cccs1 [Pyrantel tartrate] | 0.249
Nc1ccc(S(=O)(=O)Nc2ncccn2)cc1 | 0.187
COCCc1ccc(OCC(O)CNC(C)C)cc1 (racemic) [Metoprolol-(+,-) (+)-tartrate salt] | 0.236
CC(C)NCC(O)c1ccc(NS(C)(=O)=O)cc1 (stereo not drawn) [Sotalol hydrochloride] | 0.221

Requested read-out: growth. Entry: CC(=O)[C@H]1CC[C@H]2[C@@H]3C[C@H](C)C4=CC(=O)CC[C@]4(C)[C@H]3[C@@H](O)C[C@]12C
0.18

====

tested on: E. coli TESEC Mtb Alr; test: growth (OD600 after 10 h); higher = more growth (less inhibition); conditions: arabinose 100 nM; compound 0.1 mM; raw OD600 reference: median of DMSO wells 0.413, cell-free background 0.052
Where a name gives a salt, the structure may show the parent alone.
outcome-measure: growth
Write no unit; give the number alone.

// solved cases for growth follow
compound | system | growth
CCCN(CCC)C(=O)C(CCC(=O)O)NC(=O)c1ccccc1 (configuration not stated) [Proglumide] | E. coli TESEC Mtb Alr | 0.415
CCC(=O)OCC(=O)[C@@]1(OC(=O)CC)[C@H](C)C[C@H]2[C@H]3[C@H]([C@@H](O)C[C@@]21C)[C@@]1(C)C=CC(=O)C=C1C[C@H]3Cl [Alclometasone dipropionate] | E. coli TESEC Mtb Alr | 0.401
Cc1c(Nc2ncccc2C(=O)O)cccc1C(F)(F)F | E. coli TESEC Mtb Alr | 0.277

Requested read-out: growth. Entry: Cc1ccnc(NS(=O)(=O)c2ccc(N)cc2)n1
0.42

What would you report for Nc1nc(=O)c2c([nH]1)NC[C@@H](CNc1ccc(C(=O)N[C@@H](CCC(=O)O)C(=O)O)cc1)N2C=O [Folinic acid calcium salt] ?
0.397

====

test system: E. coli TESEC Mtb DapB; assay: growth (OD600 after 10 h); higher = more growth (less inhibition); settings: arabinose induction (level): Low; compound 0.1 mM; raw OD600 reference: median of DMSO wells 0.227, cell-free background 0.041
Counter-ions that a name gives are not always drawn.
Items are presented alongside their recorded growth.

molecule | measured
CC(C)N1CCN(c2ccc(OCC3COC(Cn4cncn4)(c4ccc(Cl)cc4Cl)O3)cc2)CC1 (centres undefined) | 0.223
O=C1CCc2cc(OCCCCc3nnnn3C3CCCCC3)ccc2N1 | 0.181
CCn1cc(C(=O)O)c(=O)c2cnc(N3CCNCC3)nc21 | 0.168
CCn1cc(C(=O)O)c(=O)c2ccc(C)nc21 [Nalidixic acid sodium salt] | 0.0689

Requested read-out: growth. Entry: CCn1cc(C(=O)O)c(=O)c2cnc(N3CCCC3)nc21
0.239

====

tested on: E. coli TESEC Mtb Alr; test: growth (OD600 after 10 h); higher = more growth (less inhibition); conditions: arabinose 10000000 nM; compound 0.1 mM; raw OD600 reference: median of DMSO wells […], cell-free background 0.052
Counter-ions that a name gives are not always drawn.
outcome-measure: growth
Write no unit; give the number alone.

Requested read-out: growth. Entry: Clc1ccc2nsnc2c1NC1=NCCN1 [Tizanidine HCl]
0.325

What would you report for CN(C)CCOC1=Cc2ccccc2Sc2ccc(Cl)cc21 [Zotepine] ?
0.0544

What would you report for NCc1ccccc1CC(=O)N[C@@H]1C(=O)N2C(C(=O)O)=C(CSc3nnnn3CC(=O)O)CS[C@H]12 [Ceforanide] ?
0.303

What would you report for CCSc1ccc2c(c1)N(CCCN1CCN(C)CC1)c1ccccc1S2 [Thiethylperazine dimalate] ?
0.0544

What would you report for COc1cc2nc(N3CCN(C(=O)C4CCCO4)CC3)nc(N)c2cc1OC (stereo not drawn) [Terazosin hydrochloride] ?
0.259

What would you report for CCC(C)(C)c1ccc(CC(C)CN2C[C@@H](C)O[C@@H](C)C2)cc1 (stereo partly drawn) [Amorolfine hydrochloride] ?
0.0533

What would you report for O=C(CCCCCCC(=O)Nc1ccccc1)NO ?
0.3

What would you report for CC(CN(C)C)CN1c2ccccc2Sc2ccccc21 (stereo not drawn) [Trimeprazine tartrate] ?
0.298

====

tested on: E. coli TESEC Alr+ wild-type control; test: growth (OD600 after 10 h); higher = more growth (less inhibition); details: compound 0.1 mM; raw OD600 reference: median of DMSO wells 0.49, cell-free background 0.052
Structures can show the parent of a compound that is named as a salt.
outcome-measure: growth
Write no unit; give the number alone.

compound | outcome-measure | measured
COC(=O)[C@@H]1[C@H]2C[C@H]3c4[nH]c5ccccc5c4CCN3C[C@@H]2CC[C@@H]1O [Yohimbine hydrochloride] | growth | 0.525
CC(C)(Oc1ccc(Cl)cc1)C(=O)O | growth | 0.547
COc1ccc(-c2cc(=S)ss2)cc1 | growth | 0.616
CC(=C(CCO)SSCC1CCCO1)N(C=O)Cc1cnc(C)nc1N (stereo in doubt) [Fursultiamine Hydrochloride] | growth | 0.583
CCN1C(=O)NC(c2ccccc2)C1=O (stereo unspecified) | growth | 0.448

We now examine a further compound.
Requested read-out: growth. Entry: N=C(N)c1ccc(OCCCCCOc2ccc(C(=N)N)cc2)cc1 [Pentamidine isethionate]
0.194

====

tested on: E. coli TESEC Mtb DapB; assay: growth (OD600 after 10 h); higher = more growth (less inhibition); details: arabinose induction (level): High; compound 0.1 mM; raw OD600 reference: median of DMSO wells […], cell-free background 0.041
Where a name gives a salt, the structure may show the parent alone.
Items are presented alongside their recorded growth.
Write no unit; give the number alone.

compound | growth
Cc1cccc(C)c1OCC(C)N (centres undefined) [Mexiletine hydrochloride] | 0.2

Requested read-out: growth. Entry: CN(C)CCCC1(c2ccc(F)cc2)OCc2cc(C#N)ccc21 (centres undefined) [Citalopram Hydrobromide]
0.191

What would you report for CCN1CCCC(OC(=O)C(c2ccccc2)c2ccccc2)C1 (centres undefined) [Piperidolate hydrochloride] ?
0.178

What would you report for CC(=C(CCO)SSCC1CCCO1)N(C=O)Cc1cnc(C)nc1N (stereo in doubt) [Fursultiamine Hydrochloride] ?
0.195

====

test system: E. coli TESEC Mtb Alr; test: growth (OD600 after 10 h); higher = more growth (less inhibition); conditions: arabinose 1000 nM; compound 0.1 mM; raw OD600 reference: median of DMSO wells 0.294, cell-free background 0.041
Structures can show the parent of a compound that is named as a salt.
Items are presented alongside their recorded growth.
Write no unit; give the number alone.

// solved cases for growth follow
molecule | measured
CCOC(=O)[C@@](C)(N)Cc1ccc(O)c(O)c1 [Methyldopate hydrochloride] | 0.159
CN(CCOc1ccc(CC2SC(=O)NC2=O)cc1)c1ccccn1 (centres undefined) [Rosiglitazone Hydrochloride] | 0.177
CC(=O)CCCCn1c(=O)c2c(ncn2C)n(C)c1=O [Pentoxifylline] | 0.276
CCOC(=O)[N-]c1c[n+](N2CCOCC2)no1 [Molsidomine] | 0.307

We now examine a further molecule.
Write down the reported growth of O=C(c1ccc(F)cc1)C1CCN(CCn2c(=O)[nH]c3ccccc3c2=O)CC1 [Ketanserin tartrate hydrate] , test system: E. coli TESEC Mtb Alr.
0.251

====

tested on: E. coli TESEC Mtb DapB; test: growth (OD600 after 10 h); higher = more growth (less inhibition); details: arabinose induction (level): High; compound 0.1 mM; raw OD600 reference: median of DMSO wells […], cell-free background 0.041
Where a name gives a salt, the structure may show the parent alone.
Items are presented alongside their recorded growth.
Write no unit; give the number alone.

compound | system | measured
CNCC(O)c1ccc(OC(=O)C(C)(C)C)c(OC(=O)C(C)(C)C)c1 (stereo not drawn) [Dipivefrin hydrochloride] | E. coli TESEC Mtb DapB | 0.188
CN(C)CCN(Cc1ccc(Cl)cc1)c1ccccn1 [Chloropyramine hydrochloride] | E. coli TESEC Mtb DapB | 0.185
O=C(O)c1cc(=O)c2c(OCC(O)COc3cccc4oc(C(=O)O)cc(=O)c34)cccc2o1 [Cromolyn disodium salt] | E. coli TESEC Mtb DapB | 0.189

Requested read-out: growth. Entry: Clc1ccccc1C(c1ccccc1)(c1ccccc1)n1ccnc1
0.0469
